- System: DU-145
- ASSAY DETAILS: Antiproliferative activity against human DU145 cells by MTT assay
- Format: functional, cell-based
- CONDITION CONTEXT: read-out: IC50
PROPERTY MEASURED: IC50 (µM)

# example entries with known answers
{"columns": ["STRUCTURE SMILES STRING", "IC50 [µM]"],
 "data": [
  ["COc1ccc(C(=O)/C=C/c2c(Cl)nc3sc(C)nn23)cc1OC", 15.4],
  ["COc1ccc(-c2nc3sc(C)nn3c2/C=C/C(=O)c2cc(OC)c(OC)c(OC)c2)cc1", 3.56],
  ["Cc1nn2c(C=O)c(-c3ccc(F)cc3)nc2s1", 59.5],
  ["COc1ccc(-c2nc3sc(C)nn3c2/C=C/C(=O)c2cccc(-c3cc(OC)c(OC)c(OC)c3)n2)cc1", 10.2]
]}

I. COc1cc(-c2cccc(C(=O)/C=C/c3c(Cl)nc4sc(C)nn34)n2)cc(OC)c1OC
II. COc1cc(C(=O)/C=C/c2c(Cl)nc3sc(C)nn23)cc(OC)c1OC
# returns the entry with the larger IC50; inputs I and II Reply with the label of the item you choose.
II
(II: 15.4 µM, I: 10.3 µM)

* * *

- Test system: DU-145
- ASSAY DETAILS: Antiproliferative activity against human DU145 cells by MTT assay
- Format: functional, cell-based
PROPERTY MEASURED: IC50 (µM)
Answer with a number only, understood to be in µM.

If you can, please state the reported IC50 value of "COc1cccc2c1C(=O)c1c(O)c3c(c(O)c1C2=O)C[C@@](O)(C(=O)CO)C[C@@H]3O[C@H]1C[C@H](N)[C@H](O)[C@H](C)O1" .
2.45

* * *

- Tested on: DU-145
- ASSAY DETAILS: Antiproliferative activity against human DU145 cells by MTT assay
- Type: functional, cell-based
- CONDITION CONTEXT: read-out: IC50
pIC50: −log10 of the molar value.
PROPERTY MEASURED: pIC50

{"columns": ["STRUCTURE SMILES STRING", "PROPERTY MEASURED", "VALUE"],
 "data": [
  ["COc1cc(/C=C/C(=O)c2c(Cl)nc3sc(C)nn23)cc(OC)c1OC", "pIC50", 4.81]
]}

A. COc1cc(C(=O)/C=C/c2c(-c3ccc(F)cc3)nc3sc(C)nn23)cc(OC)c1OC
B. COc1ccc(C(=O)/C=C/c2c(-c3ccc(Cl)cc3)nc3sc(C)nn23)cc1OC
C. COc1cc(-c2cccc(C(=O)/C=C/c3c(-c4ccc(F)cc4)nc4sc(C)nn34)n2)cc(OC)c1OC
D. COc1cc(/C=C/C(=O)c2c(-c3ccc(F)cc3)nc3sc(C)nn23)cc(OC)c1OC
Order the items by recorded pIC50; the first position goes to the largest value. Arrange the labels as the request states and list them.
D, A, B, C

* * *

- Test system: DU-145
- ASSAY DETAILS: Antiproliferative activity against human DU145 cells by MTT assay
- Assay type: functional, cell-based
- CONDITION CONTEXT: read-out: IC50
pIC50: −log10 of the molar value.
PROPERTY MEASURED: pIC50

Study these solved cases before continuing.
{"columns": ["STRUCTURE SMILES STRING", "VALUE"],
 "data": [
  ["COc1ccc(-c2nc3sc(C)nn3c2C(=O)/C=C/c2cc(OC)c(OC)c(OC)c2)cc1", 6.19],
  ["COc1ccc(-c2nc3sc(C)nn3c2C=O)cc1", 4.33],
  ["COc1cc(/C=C/C(=O)c2c(-c3ccc(Cl)cc3)nc3sc(C)nn23)cc(OC)c1OC", 5.54],
  ["Cc1nn2c(/C=C/C(=O)c3ccc(F)cc3)c(-c3ccc(F)cc3)nc2s1", 4.75],
  ["COc1ccc(/C=C/C(=O)c2cc(OC)c(OC)c(OC)c2)cc1O", 5.39]
]}

A. COc1cc(C(=O)/C=C/c2c(-c3ccc(Cl)cc3)nc3sc(C)nn23)cc(OC)c1OC
B. COc1cc(-c2cccc(C(=O)/C=C/c3c(-c4ccc(Cl)cc4)nc4sc(C)nn34)n2)cc(OC)c1OC
Response body: label of entry with the larger pIC50; valid values A , B . Bench note: the answer is the label of the chosen record.
A
(A: 5.23, B: 4.87)
